# Test system: NCI-H460
# method: cells
# conditionParameters: Homo sapiens, NCI-H460, 72 h
# Description: Antiproliferative activity against human NCI-H460 cells assessed as cell growth inhibition measured after 72 hrs by MTT assay
quantityName: IC50 (µM)
Give just the number in µM; leave the unit off.

Request the reported IC50 associated with `COCCOc1cc2ncnc(Sc3nc[nH]n3)c2cc1OCCOC`
28.2

###

# method: Aqueous solubility of the compound in water
# Format: physicochemical
quantityName: solubility

Returns the measured solubility for the input compound. Input: `COCCOc1cc2ncnc(Sc3nc[nH]n3)c2cc1OCCOC`
> 100 mg/mL

###

# System: NCI-H1650
# method: cells
# conditionParameters: Homo sapiens, NCI-H1650, 72 h
# Description: Antiproliferative activity against human NCI-H1650 cells assessed as cell growth inhibition measured after 72 hrs by MTT assay
quantityName: IC50 (µM)
Write it as a number; the unit µM goes unstated.

Tell me the measured IC50 of `COCCOc1cc2ncnc(Sc3nc[nH]n3)c2cc1OCCOC` , please.
17.2

###

# System: NCI-H1975
# method: cells
# conditionParameters: Homo sapiens, NCI-H1975, 72 h
# Description: Antiproliferative activity against human NCI-H1975 cells assessed as cell growth inhibition measured after 72 hrs by MTT assay
quantityName: IC50 (µM)
Give your result in µM as a bare value.

Find the recorded IC50 belonging to `COCCOc1cc2ncnc(Sc3nc[nH]n3)c2cc1OCCOC` and report it.
26.6
